rIP: recorded values
- study-target: CD22 (Homo sapiens)
- Construct: The soluble CD22 protein was expressed in the CHO-Lec1 cell line; made in house; host or cells: CHO-Lec1
- Sequence (P20273 20-687 limits assumed): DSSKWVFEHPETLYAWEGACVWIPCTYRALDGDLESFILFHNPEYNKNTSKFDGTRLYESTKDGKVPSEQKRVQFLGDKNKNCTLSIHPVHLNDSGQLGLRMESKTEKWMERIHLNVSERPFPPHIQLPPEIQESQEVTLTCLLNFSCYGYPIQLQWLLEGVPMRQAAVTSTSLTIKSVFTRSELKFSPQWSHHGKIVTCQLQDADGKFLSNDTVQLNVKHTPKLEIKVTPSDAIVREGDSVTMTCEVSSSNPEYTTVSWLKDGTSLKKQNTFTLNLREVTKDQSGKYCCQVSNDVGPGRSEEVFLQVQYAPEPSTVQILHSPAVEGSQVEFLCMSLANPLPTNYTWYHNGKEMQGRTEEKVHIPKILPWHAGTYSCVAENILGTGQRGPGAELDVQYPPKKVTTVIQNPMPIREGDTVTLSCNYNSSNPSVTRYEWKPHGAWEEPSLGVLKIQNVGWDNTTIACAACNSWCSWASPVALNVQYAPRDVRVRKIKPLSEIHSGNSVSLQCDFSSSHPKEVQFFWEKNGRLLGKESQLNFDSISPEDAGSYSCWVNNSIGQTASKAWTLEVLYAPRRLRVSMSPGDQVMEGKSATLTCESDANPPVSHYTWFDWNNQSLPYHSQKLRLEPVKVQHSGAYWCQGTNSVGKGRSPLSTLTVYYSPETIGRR
- assay-procedure: ELISA-based inhibition assay: inhibition of binding of soluble CD22 to immobilized IgM
- measurement-context: Table II; relative to reference compound 10 co-tested in the same assay (rIP = 1)
The reply should be a number, written without any unit.

Below are worked cases with known answers.
# smiles-repr, study-target, rIP
measured = [
    ("CC(=O)N[C@@H]1[C@@H](NC(=O)c2ccccc2Cl)[C@H](O)[C@](OCCCCCC(=O)[O-])(C(=O)[O-])O[C@H]1[C@H](O)[C@H](O)CNC(=O)c1ccc(-c2ccccc2)cc1.[Na+].[Na+]", "CD22 (Homo sapiens)", 0.12),
    ("CC(=O)N[C@@H]1[C@@H](NC(=O)CF)[C@H](O)[C@](OCCCCCC(=O)[O-])(C(=O)[O-])O[C@H]1[C@H](O)[C@H](O)CNC(=O)c1ccc(-c2ccccc2)cc1.[Na+].[Na+]", "CD22 (Homo sapiens)", 0.25),
    ("CC(=O)N[C@@H]1[C@@H](NC(=O)CO)[C@H](O)[C@](OCCCCCC(=O)[O-])(C(=O)[O-])O[C@H]1[C@H](O)[C@H](O)CNC(=O)c1ccc(-c2ccccc2)cc1.[Na+].[Na+]", "CD22 (Homo sapiens)", 0.24),
    ("CC(=O)N[C@@H]1[C@@H](NC(=O)c2ccccc2)[C@H](O)[C@](OCCCCCC(=O)[O-])(C(=O)[O-])O[C@H]1[C@H](O)[C@H](O)CNC(=O)c1ccc(-c2ccccc2)cc1.[Na+].[Na+]", "CD22 (Homo sapiens)", 0.93),
    ("CC(=O)N[C@@H]1[C@@H](NC(=O)C2CC2)[C@H](O)[C@](OCCCCCC(=O)[O-])(C(=O)[O-])O[C@H]1[C@H](O)[C@H](O)CNC(=O)c1ccc(-c2ccccc2)cc1.[Na+].[Na+]", "CD22 (Homo sapiens)", 0.81),
]

Prompt line: Indicate the recorded rIP value for this compound: CCCCC(=O)N[C@@H]1[C@@H](NC(C)=O)[C@H]([C@H](O)[C@H](O)CNC(=O)c2ccc(-c3ccccc3)cc2)O[C@@](OCCCCCC(=O)[O-])(C(=O)[O-])[C@H]1O.[Na+].[Na+]
Response line: 1.22

Prompt line: Indicate the recorded rIP value for this compound: CC(=O)N[C@@H]1[C@@H](NC(=O)c2ccccc2C)[C@H](O)[C@](OCCCCCC(=O)[O-])(C(=O)[O-])O[C@H]1[C@H](O)[C@H](O)CNC(=O)c1ccc(-c2ccccc2)cc1.[Na+].[Na+]
Response line: 0.13
